Where do these numbers come from? They come from PubChem BioAssay.

# Method: hit retest on RPL19A-GFP reporter strain – cell-based, S. cerevisiae, flow cytometry, cherry picks, mother/daughter gates, confirmation (AID 2270)
# Condition Label: 3 h, measured here: daughter cell gate, at 10 µM, stronger effect = lower value, 100 = same GFP as DMSO wells

| Molecule | GFP response vs DMSO [%] |
| --- | --- |
| CC(=O)Nc1ccc(S(=O)(=O)c2ccc(N)cc2)cc1 | 101 |
| CN(C)CCN(Cc1ccccc1)c1ccccn1 | 98.1 |
| O=c1cc(-c2ccccc2)oc2cc(OCc3ccccc3)cc(O)c12 | 98.6 |
| Cc1cc(C)c(C(=O)Cn2cnc3cc([N+](=O)[O-])ccc3c2=O)cc1C | 101 |
| CCCCCCCC(=O)OCC(=O)[C@@]1(O)CC[C@H]2[C@@H]3CCC4=CC(=O)CC[C@]4(C)[C@H]3[C@@H](O)C[C@@]21C | 95.9 |
| CN1CCN2c3ccccc3Cc3ccccc3C2C1 (centres undefined) | 98.4 |
| COc1ccc(C2=CC(=O)C=CC2=O)cc1 | 114 |
| O=C(O)CCNC(=O)c1ccccc1 | 97.5 |
| CC(=O)[C@@]1(O)CC[C@H]2[C@@H]3C[C@H](C)C4=CC(=O)CC[C@]4(C)[C@H]3CC[C@@]21C | 96.1 |
| O=C(C#Cc1ccccc1)c1cccc([N+](=O)[O-])c1 | 95.9 |
| C[C@H]1C[C@@H]2[C@H]([C@@H](O)C[C@@]3(C)[C@H]2CC[C@]3(O)C(=O)CO)[C@@]2(C)C=CC(=O)C=C12 | 96.6 |
| CC(C)CC(=O)Nc1ccc2oc(-c3ccncc3)nc2c1 | 99.8 |
| CC(=O)c1ccc(CCCCCCCCCC(=O)O)s1 | 96.7 |
| CC(=O)Nc1ccccc1O | 101 |
| CCOC(=O)C(Cc1cc(C(C)=O)ccc1OC(C)C)C(=O)OCC | 101 |
| CN/C(=C/[N+](=O)[O-])NCCSCc1ccc(CN(C)C)o1 | 101 |
| CN(C)c1ccc(/C=C/C(=O)c2cccc(Br)c2)cc1 | 105 |
| CN(C)CCCN1c2ccccc2Sc2ccc(Cl)cc21 | 101 |
| C[C@]12C[C@H](O)[C@H]3[C@@H](CCC4=CC(=O)CC[C@@]43C)[C@@H]1CC[C@@H]2C(=O)CO | 98.9 |
| COc1ccc(-c2noc(-c3ccccc3-c3ccccc3)n2)cc1 | 92.9 |
| O=c1[nH]cc(F)c(=O)[nH]1 | 82.3 |
| NS(=O)(=O)c1cc2c(cc1C(F)(F)F)NC(Cc1ccccc1)NS2(=O)=O (centres undefined) | 96 |
| C#C[C@]1(O)CC[C@H]2[C@@H]3CCC4=CC(=O)CC[C@@H]4[C@H]3CC[C@@]21CC | 98.7 |
| COc1ccc(C(=O)NCC2OCCc3ccccc32)cc1 (centres undefined) | 97.1 |
| Cc1ccc(OCCCCn2ccnc2C)c(C)c1 | 99.4 |
| O=C(NCCN1CCN(c2ccccc2)CC1)c1cccc(Br)c1 | 98 |
| COC(=O)n1c(=S)oc2cc(Cl)ccc21 | 93.9 |
| O=C(NC1CCCCC1)N1CCc2[nH]c3ccccc3c2C1 | 98.1 |
| COc1cc2c(cc1OC)C(c1ccccc1)=NCC2 | 97.6 |
| CCOc1nnc(C)c2c(C)n(-c3cccc(OC)c3)nc12 | 102 |
| CCS(=O)(=O)N1N=C(c2cccc(NS(C)(=O)=O)c2)CC1c1ccc(C)cc1 (centres undefined) | 99.1 |
| CNCCC(Oc1ccc(C(F)(F)F)cc1)c1ccccc1 (centres undefined) | 97 |
| CC(=O)OCC(=O)[C@H]1CC[C@H]2[C@@H]3CCC4=CC(=O)CC[C@]4(C)[C@H]3CC[C@]12C | 96.7 |
| CC(C)(C)c1ccc(C(=O)CC(Sc2ccc(Cl)cc2)C(=O)O)cc1 (centres undefined) | 97.1 |
| CC(=O)OCC(=O)[C@@]1(O)CC[C@H]2[C@@H]3CCC4=CC(=O)CC[C@]4(C)[C@H]3[C@@H](O)C[C@@]21C | 97.1 |
| CC(=O)O[C@]1(C(C)=O)CC[C@H]2[C@@H]3C[C@H](C)C4=CC(=O)CC[C@]4(C)[C@H]3CC[C@@]21C | 95.7 |
| COc1cccc(/C=C/C(=O)c2c(O)cc(C)oc2=O)c1O | 104 |
| CC(=O)CSc1ncnc2c1cnn2-c1ccccc1 | 97.6 |
| CCN(CC)c1ccc2cc(-c3nc(-c4ccc(OC)cc4)cs3)c(=O)oc2c1 | 103 |
